Tested on: Mycobacterium tuberculosis
Protocol text: Cornell M. t heat shock assay; further: in the data most compounds retested in dose-response had high values
Assay type: functional, organism-based
Set-up: dose or concentration left out as unconfirmed
In all, about 69,000 compounds went through this assay and about 950 (1.4%) showed an effect of 50% or more. The list comes from a sample in which strong results are over-represented; it also holds close analogues and randomly drawn compounds.
Readout type: Percent Effect (%)
Use % as the unit, but write only the number.

Solved entries:
{"Compound": "O=C(O)CC(O)(CC(=O)O)C(=O)O.c1cncc(-c2nccc(CN3CCC(N4CCCCC4)CC3)n2)c1", "Quantitative readout": -13.06}
{"Compound": "CCC(C)NC(=O)CS(=O)(=O)Cc1nc(-c2cccs2)no1 (stereo unspecified)", "Quantitative readout": 65.94}
{"Compound": "CC(C)c1noc(CS(=O)(=O)CC(=O)NCc2ccccc2)n1", "Quantitative readout": 49.68}

Q: Quick one: Percent Effect of Cc1ccc(N2CCO[C@H]3CN(Cc4ccc(F)cc4)C[C@H]32)nn1.O=C(O)C(F)(F)F.O=C(O)C(F)(F)F ?
Ans: -13.42

Q: Quick one: Percent Effect of Cc1cnn(CC2CCCCN2CC(=O)Nc2c(C)n[nH]c2C)c1 (stereo unspecified) ?
Ans: -5.895

Q: Quick one: Percent Effect of CC(C)=CCS(=O)(=O)Cc1nc(C(C)C)no1 ?
Ans: 58.075

Q: Quick one: Percent Effect of CNC(=O)COc1ccc(CNc2cncc(-n3cccn3)n2)cc1 ?
Ans: -4.201

Q: Quick one: Percent Effect of CC(C)c1nn(C)c(N(C)C)c1CNCc1cccc2cccnc12.Cl ?
Ans: 16.12

Q: Quick one: Percent Effect of CC(C)c1noc(CS(=O)(=O)CC(=O)NCCOc2ccccc2)n1 ?
Ans: 41.58

Q: Quick one: Percent Effect of O=C(O)C(F)(F)F.c1cnc(NCc2nnn3c2CN(Cc2ccsc2)CCC3)nc1 ?
Ans: -34.33

Q: Quick one: Percent Effect of Cc1noc(CS(=O)(=O)CC(=O)NC(C)c2ccccc2)n1 (stereo unspecified) ?
Ans: 70.08

Q: Quick one: Percent Effect of CCc1ncnc2c1CCN(Cc1ccc3c(c1)OCO3)CC2.O=C(O)C(F)(F)F ?
Ans: -11.62

Q: Quick one: Percent Effect of CC(C)c1noc(CS(=O)(=O)Cc2nc(C(C)C)no2)n1 ?
Ans: -44.125

Q: Quick one: Percent Effect of Cc1nc(CN2CCC3(CCCN(Cc4ccoc4)C3)C2=O)cs1.O=C(O)C(F)(F)F.O=C(O)C(F)(F)F (stereo unspecified) ?
Ans: -16.93

Q: Quick one: Percent Effect of CC(Cn1cccn1)NCc1nc(-c2cccs2)no1 (stereo unspecified) ?
Ans: 22.29

Q: Quick one: Percent Effect of CCCOc1ccc(CNc2cncc(-n3cccn3)n2)cc1 ?
Ans: 63.69

Q: Quick one: Percent Effect of COc1ccc(F)cc1C(=O)N1C[C@H]2C[C@H](OC)C[C@H]2C1 ?
Ans: -3.804
